test system: IGROV1 ovarian; assay: NCI-60 one-dose screen, 48 h (100 = growth as untreated, 0 = no growth, -100 = all killed); details: 10 µM unless noted
Compounds without any hit were thinned out: in the full panel of roughly 83,000, 20% have a hit.
In this section we review reported growth values for a set of compounds.
Give just the number in %; leave the unit off.

Use the examples below as a reference point.
| Compound | Unit name | Measured |
| --- | --- | --- |
| Fc1ccccc1Nc1n[nH]c(=S)s1 | % | 126 |
| CCc1c(CC(=O)O)c2cc(C)ccc2n1Cc1ccc(Cl)cc1 | % | 92.3 |
| O=C(CCc1ccc(O)cc1)N/N=C/c1cc(Br)ccc1O | % | 62.5 |
| O=[N+]([O-])c1ccc(-n2[nH]nnc2=S)cc1 | % | 91.3 |
| O=C(O)C1(C(=O)O)CCC1.[NH2-].[NH2-].[Pt+2] | % | 95.6 |

**Q:** Note growth for the compound shown: O=C(Oc1cccc(OC(=O)c2ccccc2)c1)c1ccccc1
**A:** 109

**Q:** Fill in growth for record COc1ccc(NC(=S)Nc2ccccn2)cc1
**A:** 106

**Q:** Given the compound O=C(Nc1ccc([N+](=O)[O-])cc1Cl)c1cc(Cl)ccc1O , write its reported growth.
**A:** 14.4

**Q:** Entry NC(=O)c1ccccc1OCC(O)CO (centres undefined) needs its growth filled in; supply it.
**A:** 108

====

test system: MOLT-4 leukemia; assay: NCI-60 one-dose screen, 48 h; conditions: 10 µM unless noted
This is part of a sample that, as a whole, favours compounds with a hit. Of some 83,000 tested, about 20% had one in any assay. The source made the active and inactive calls. Rule for the calls: active = growth percent below 10; inactive = the rest.
In this exercise, the only acceptable responses are yes = active, no = inactive

These recorded examples may help you get a feel for the data.
| Molecule | Class label |
| --- | --- |
| CC12CCC(CC1)C(C)(C)O2 | no |
| CCOC(=O)C(CNc1ccccc1)C(=O)OCC | no |
| O=C=NC(c1ccccc1)(c1ccccc1)c1ccccc1 | no |
| NC(=O)c1ccccc1OCC(O)CO (stereo unspecified) | no |
| Fc1ccccc1Nc1n[nH]c(=S)s1 | no |
| Cc1ccc(-c2noc(CC(=O)c3ccc([N+](=O)[O-])cc3)n2)cc1 | no |
| O=[N+]([O-])c1ccc2nc3c4ccccc4c4ccccc4c3nc2c1 | no |
| O=C(N/N=C/c1ccc2c(c1)OCO2)c1ccncc1 | no |

**Q:** Hey, what did the test say about CCCCCCCCCCCCOc1ccccc1C=O ?
**A:** no

**Q:** Answer briefly: the call reported for O=C1c2ccccc2C(=O)N1/N=C/c1ccc2c(c1)OCO2 in this assay.
**A:** no

**Q:** # lookup: test call for Nc1ccccc1SC1CC(=O)N(c2cccc3ccccc23)C1=O (stereo unspecified)
**A:** no

**Q:** Test call, this molecule: Clc1ccc(SSc2ccc(Cl)cc2)cc1
**A:** no

**Q:** Hi team, can someone confirm the assay call for CC(/C=N/N1C(=O)c2ccccc2C1=O)c1ccccc1 (stereo unspecified) ?
**A:** no

**Q:** What outcome does the record of this test show for CC(=O)C(/C=N/C(N)=O)=C(/C)O ?
**A:** no

**Q:** Name the outcome recorded for O=C1OC(Oc2ccc(Br)cc2)(c2ccccc2)c2ccccc21 (stereo unspecified) in the assay.
**A:** no

**Q:** Which result was noted for this molecule in the test: CCN(CC)CCC(CNc1c2ccc([N+](=O)[O-])cc2nc2cc(OC)c(OC)cc12)c1ccccc1 (stereo unspecified)
**A:** yes

====

Each record here notes measured growth.
system: SK-MEL-2 melanoma; test: NCI-60 one-dose screen, 48 h (100 = growth as untreated, 0 = no growth, -100 = all killed); settings: 10 µM unless noted
The panel holds about 83,000 compounds, 20% with a hit somewhere; the sample as a whole holds those more often.
Only the number, expressed in %, is required.

Here are 8 compounds together with their reported answers.
| Compound | Measured |
| --- | --- |
| Cc1cc(N=Nc2ccc(C)c(N=Nc3cc(C)c(N)cc3N)c2)c(N)cc1N | 107 |
| CC1(c2ccc3ccccc3c2)CCC(=O)O1 (centres undefined) | 86.6 |
| COc1ccc(NC(=S)Nc2ccccn2)cc1 | 94.6 |
| Clc1nc(Oc2ccccc2)nc(-c2cn(-c3ccccc3)c3ccccc23)n1 | -49.5 |
| O=[N+]([O-])c1ccccc1N(S(=O)(=O)c1ccccc1)S(=O)(=O)c1ccccc1 | 106 |
| OCc1ccccn1 | 106 |
| CNC(=O)c1ccc(C)c(-n2c(C)cc(OCc3ccc(F)cc3F)c(Br)c2=O)c1 | 89.3 |
| NC(=S)N/N=C(\c1ccc(Br)cc1)C1CC1 | 92.8 |

**Q:** Fill in growth for CCN(CC)C(=S)SSC(=S)N(CC)CC tested with SK-MEL-2 melanoma.
**A:** 103

**Q:** Recall the reported growth of CN(C)c1ccc2nc3ccc(N)cc3[n+](-c3ccccc3)c2c1 when tested on SK-MEL-2 melanoma.
**A:** 58.2

**Q:** Provide growth, recorded with SK-MEL-2 melanoma, of Cc1cc(=O)[nH]c(O)c1C#N
**A:** 108

====

System: HCC-2998 colon
Experiment: NCI-60 one-dose screen, 48 h (100 = growth as untreated, 0 = no growth, -100 = all killed)
Details: 10 µM unless noted
Experimental: Growth inhibition of the HCC-2998 human tumor cell line is measured as a screen for anti-cancer activity. Cells are grown in 96 well plates and exposed to the test compound for 48 hours. Compounds are tested at a single concentration, which is 10^-5 M for most compounds. The reported endpoint is percent growth (GI% or GIPRCNT), where numbers from 0 - 100% represent growth inhibition, and numbers from -100% - 0 represent cell death. For example, a value of 40 represents 60% growth inhibition. […]
This is part of a sample that, as a whole, favours compounds with a hit. Of some 83,000 tested, about 20% had one in any assay.
Experimental endpoint: growth (%)
The reply should contain only the number, in %.

Example entries begin here.
| Molecule | Assay system | Experimental endpoint | Measured |
| --- | --- | --- | --- |
| O=C(c1ccc(Cl)cc1)C(NCCO)c1ccc(Cl)cc1 (centres undefined) | HCC-2998 colon | growth | 101 |
| CC(O)Cn1cnc2c1c(=O)n(C)c(=O)n2C (centres undefined) | HCC-2998 colon | growth | 106 |
| CCOc1ccc(Nc2c3ccccc3nc3ccccc23)cc1 | HCC-2998 colon | growth | 39.8 |
| O=CC(O)C(O)C(O)CO (centres undefined) | HCC-2998 colon | growth | 101 |
| CCN(CC)C(=O)c1cccnc1 | HCC-2998 colon | growth | 109 |
| CCOc1ccc2c(S(=O)(=O)O)cccc2c1[N+](=O)[O-] | HCC-2998 colon | growth | 109 |
| O=C1c2ccccc2C(=O)N1/N=C/c1ccc2c(c1)OCO2 | HCC-2998 colon | growth | 116 |
| NS(=O)(=O)c1cc2c(cc1Cl)NC(C(Cl)Cl)NS2(=O)=O (centres undefined) | HCC-2998 colon | growth | 111 |

Please examine the following record next.
**Q:** Please give measured growth of the following entry: O=C(Cc1cccc2ccccc12)N/N=C/c1ccc2c(c1)CCC2
**A:** 81.9

====

Some molecules, each annotated with its measured growth.
test system: NCI-H23 lung; test: NCI-60 one-dose screen, 48 h (100 = growth as untreated, 0 = no growth, -100 = all killed); settings: 10 µM unless noted
The panel holds about 83,000 compounds, 20% with a hit somewhere; the sample as a whole holds those more often. Active and inactive are the calls of the source. Rule for the calls: active = growth percent below 10; inactive = the rest.

**Q:** Provide only the value of recorded growth for NC(=O)c1ccccc1OCC(O)CO (centres undefined)
**A:** 110% (inactive)

====

The reader will find reported growth values listed item by item below.
tested on: SK-MEL-2 melanoma; test: NCI-60 one-dose screen, 48 h (100 = growth as untreated, 0 = no growth, -100 = all killed); conditions: 10 µM unless noted
About 83,000 compounds went through this panel and 20% of them were active in at least one assay; those are over-represented in the sample as a whole.
Please state the figure in %; there is no need to write the unit.

Example results:
| Compound | growth / % |
| --- | --- |
| CCC(O)c1ccccc1 (stereo not drawn) | 104 |
| CCCCCCCCCCCCOc1ccccc1C=O | 112 |

Here is the next item to consider.
**Q:** State its growth: COc1ccc2nc(Cl)cc(C)c2c1
**A:** 99.6

====

tested on: NCI-H23 lung; assay: NCI-60 one-dose screen, 48 h (100 = growth as untreated, 0 = no growth, -100 = all killed); conditions: 10 µM unless noted
The panel holds about 83,000 compounds, 20% with a hit somewhere; the sample as a whole holds those more often. Activity calls are given as the source filed them. How the source made its calls: active means growth percent below 10; inactive means the rest.
Experimental endpoint: growth

Solved entries (count: 5):
| Compound | growth |
| --- | --- |
| Clc1nc(Oc2ccccc2)nc(-c2cn(-c3ccccc3)c3ccccc23)n1 | 14.5% (inactive) |
| O=C(CCc1ccc(O)cc1)N/N=C/c1cc(Br)ccc1O | 61.4% (inactive) |
| N#C/C(=C1C=C/C(=N/O)C(Br)=C/1)c1ccccc1 | 78.3% (inactive) |
| CCCCCCCCCCCCOc1ccccc1C=O | 100% (inactive) |
| Oc1ccccc1C=NCC1CCC(CN=Cc2ccccc2O)CC1 (stereo not drawn) | 78.9% (inactive) |

**Q:** Provide one value: measured growth of CC1=NN(c2ccccc2)C(=O)C1C(=O)c1ccccc1 (stereo not drawn)
**A:** 98.2% (inactive)

**Q:** Look up and report measured growth for this entry: COc1ccc(NC(=S)Nc2ccccn2)cc1
**A:** 96% (inactive)

**Q:** Please indicate growth recorded for CCOC(=O)C(CNc1ccccc1)C(=O)OCC
**A:** 100% (inactive)
